- target system: human sphingosine-1-phosphate receptor 1 (S1P1) (Homo sapiens (Human))
- protocol description: β-Arrestin2 recruitment assay (PathHunter), S1P1 CHO-K1 cells
- Format: cell-based
- assay setup: CHO-K1; efficacy (SPAN) normalized to fingolimod; read-out: hS1P1 B-arrestin2 SPAN
- Sequence (P21453 whole entry, looked up): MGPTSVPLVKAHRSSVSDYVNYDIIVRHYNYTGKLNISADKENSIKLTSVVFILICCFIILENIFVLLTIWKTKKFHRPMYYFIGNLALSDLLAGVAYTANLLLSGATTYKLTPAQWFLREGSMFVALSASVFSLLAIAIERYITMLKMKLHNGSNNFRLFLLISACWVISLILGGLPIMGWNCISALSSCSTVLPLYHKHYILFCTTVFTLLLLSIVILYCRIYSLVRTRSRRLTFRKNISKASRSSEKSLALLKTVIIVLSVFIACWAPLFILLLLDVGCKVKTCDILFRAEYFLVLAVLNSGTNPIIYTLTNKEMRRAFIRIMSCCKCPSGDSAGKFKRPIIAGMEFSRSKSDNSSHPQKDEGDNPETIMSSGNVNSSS
- Sequence (P32121 whole entry partner, looked up): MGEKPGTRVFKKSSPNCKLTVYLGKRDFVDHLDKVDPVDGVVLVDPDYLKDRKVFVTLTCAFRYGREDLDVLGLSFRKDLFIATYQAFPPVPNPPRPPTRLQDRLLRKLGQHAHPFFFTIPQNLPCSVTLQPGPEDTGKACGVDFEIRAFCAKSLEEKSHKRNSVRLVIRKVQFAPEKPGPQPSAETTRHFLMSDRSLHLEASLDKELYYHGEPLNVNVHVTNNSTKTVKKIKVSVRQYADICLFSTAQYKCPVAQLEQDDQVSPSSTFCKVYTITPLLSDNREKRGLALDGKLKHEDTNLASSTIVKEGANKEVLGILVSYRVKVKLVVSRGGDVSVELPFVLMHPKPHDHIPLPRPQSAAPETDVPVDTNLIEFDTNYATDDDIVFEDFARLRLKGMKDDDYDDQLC
assay metric: Emax

- molecule: "CC(F)(F)CNc1ccc(-c2nc(-c3ccc4c(c3)CCC(=O)N4)no2)cc1C#N [Compound 347]"
  Emax: "> 75%"
- molecule: "CC(C)n1nnc2cc(-c3nc(-c4cccs4)co3)ccc21 [Compound 459]"
  Emax: "> 75%"
- molecule: "CC(C)n1nnc2cc(-c3nc(-c4ccccc4)no3)ccc21 [Compound 79]"
  Emax: "> 75%"
- molecule: "CCC1(CC)CC(=O)c2cc(-c3nc(-c4ccc(O)cc4)no3)ccc2O1 [Compound 72]"
  Emax: "> 75%"

// below: Emax requested for another molecule
Problem: Given the entry c1ccc(Oc2ccc(-c3noc(-c4ccc5c(c4)nnn5C4CC4)n3)cc2)cc1 [Compound 285] , report its measured Emax.
Solution: < 75%

====

- target system: human sphingosine-1-phosphate receptor 1 (S1P1) (Homo sapiens (Human), UniProt P21453)
- protocol description: β-Arrestin2 recruitment assay (PathHunter), S1P1 CHO-K1 cells
- Type: cell-based
- assay setup: CHO-K1; efficacy (SPAN) normalized to fingolimod; read-out: hS1P1 B-arrestin2 SPAN
For each entry below, report its Emax value.

Observe how each entry below is paired with its result.
- molecule: "CCC1(CC)CC(=O)c2cc(-c3nc(-c4ccc(N)cc4)no3)ccc2O1"
  Emax: "> 75%"
- molecule: "N#Cc1cc(-c2nnc(-c3ccc4[nH]cnc4c3)o2)ccc1NC1CC1"
  Emax: "> 75%"
- molecule: "Cc1oc(-c2ccc3c(c2)nnn3C(C)C)nc1-c1ccccc1"
  Emax: "< 75%"
- molecule: "CCC1(CC)CC(=O)c2cc(-c3nc(-c4ccc5[nH]cnc5c4)no3)ccc2O1"
  Emax: "> 75%"
- molecule: "CC(C)Nc1ccc(-c2nnc(-c3ccc4[nH]cnc4c3)o2)cc1C#N"
  Emax: "> 75%"

Report Emax for each item below.
1. COc1cccc(OC)c1-c1noc(-c2ccc3c(cnn3C(C)C)c2)n1
2. COc1ccc(-c2nc(-c3ccc4c(c3)nnn4C(C)C)no2)c(C)c1
3. COc1cccc2nc(-c3ccc4c(c3)nnn4C(C)C)oc12
4. O=C(O)Cn1nnc2cc(-c3noc(-c4ccccc4Br)n3)ccc21
5. CC(C)n1nnc2cc(-c3nc(-c4cn[nH]c4)no3)ccc21
6. CC(C)n1nnc2cc(-c3noc(C45C6C7C4C4C5C6C74C(=O)O)n3)ccc21 (stereo not drawn)
7. Cc1ccc(-c2noc(-c3ccc4c(c3)nnn4C3CCCCC3)n2)cc1

Solution:
1. < 75%
2. > 75%
3. > 75%
4. < 75%
5. > 75%
6. < 75%
7. < 75%

Report Emax for each item below.
1. COc1ccccc1-c1noc(-c2ccc3c(c2)nnn3C(C)(C)C)n1
2. Cc1cc(-c2nc(-c3ccc4c(c3)nnn4C(C)C)no2)ccn1
3. CCC1(CC)CC(=O)c2cc(-c3nc(-c4ccnc(OC)c4)no3)ccc2O1

Solution:
["> 75%", "> 75%", "> 75%"]

====

For each entry below, report its hS1P1 cAMP pEC50 value.
- target system: human sphingosine-1-phosphate receptor 1 (S1P1) (Homo sapiens (Human), UniProt P21453)
- protocol description: Inhibition of cAMP production (HTRF cAMP HiRange), S1P1 CHO-K1 cells
- Assay type: cell-based
- assay setup: inhibition of cAMP production, S1P1 CHO-K1 cells
- Sequence (P21453 whole entry, looked up): as the sequence (P21453 whole entry, looked up) above

- compound: "O=C1CC2(CCC(F)(F)CC2)Oc2ccc(-c3nc(-c4cccnc4)no3)cc21 [Compound 36]"
  hS1P1 cAMP pEC50: "<6.5"
- compound: "COc1ccccc1-c1noc(-c2ccc3c(c2)ncn3C(C)C)n1 [Compound 373]"
  hS1P1 cAMP pEC50: "<6.5"
- compound: "CC(C)n1nnc2cc(-c3nc(-c4ccccc4Br)no3)ccc21 [Compound 282]"
  hS1P1 cAMP pEC50: ">6.5"
- compound: "Cc1ccc(-c2noc(-c3ccc4c(c3)nnn4C3CCCC3)n2)cc1 [Compound 164]"
  hS1P1 cAMP pEC50: "<6.5"
- compound: "CC(C)(CO)n1nnc2cc(-c3noc(-c4ccncc4C(F)(F)F)n3)ccc21 [Compound 626]"
  hS1P1 cAMP pEC50: "<6.5"
- compound: "CC(C)n1nnc2cc(-c3noc(C4CCOCC4)n3)ccc21 [Compound 89]"
  hS1P1 cAMP pEC50: "<6.5"
- compound: "Cn1cnc2ccc(-c3nnc(-c4ccc(NCC(F)(F)CO)c(C#N)c4)o3)cc21 [Compound 635]"
  hS1P1 cAMP pEC50: ">6.5"
- compound: "CCCn1nnc2cc(-c3nc(-c4cccc(C(F)(F)F)c4)no3)ccc21 [Compound 242]"
  hS1P1 cAMP pEC50: "<6.5"

// below: hS1P1 cAMP pEC50 requested for another compound
Problem: Given the entry CCC1(CC)CC(=O)c2cc(-c3ncc(-c4cccnc4)cn3)ccc2O1 [Compound 509] , report its measured hS1P1 cAMP pEC50.
Solution: <6.5
